Target or system the protein given by its sequence; metric IC50; compiled from varied reports.
Target chain: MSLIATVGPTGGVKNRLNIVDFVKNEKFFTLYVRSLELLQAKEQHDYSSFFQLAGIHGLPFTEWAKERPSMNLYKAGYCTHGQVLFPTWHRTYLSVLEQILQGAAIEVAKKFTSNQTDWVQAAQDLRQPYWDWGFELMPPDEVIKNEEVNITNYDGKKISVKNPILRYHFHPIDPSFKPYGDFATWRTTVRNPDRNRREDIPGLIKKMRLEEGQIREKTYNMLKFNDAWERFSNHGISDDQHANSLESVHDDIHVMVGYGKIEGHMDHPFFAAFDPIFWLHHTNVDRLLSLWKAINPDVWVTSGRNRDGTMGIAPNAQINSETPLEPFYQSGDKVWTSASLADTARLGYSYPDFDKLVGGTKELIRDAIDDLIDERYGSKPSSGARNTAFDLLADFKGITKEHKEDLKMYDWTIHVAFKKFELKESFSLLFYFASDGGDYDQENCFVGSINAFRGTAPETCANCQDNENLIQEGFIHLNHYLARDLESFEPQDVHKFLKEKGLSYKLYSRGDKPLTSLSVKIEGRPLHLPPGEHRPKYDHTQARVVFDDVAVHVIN

Give IC50 for CC(=O)N1N=C(c2ccc(O)cc2O)CC1c1ccc(O)c([N+](=O)[O-])c1 (stereo not given)
> 200 µM

Give IC50 for CCCCC(=O)NC(=S)Nc1ccc(Br)cc1
3.37 µM

Give IC50 for COC(=O)C(Cc1ccc(O)cc1)NC(=O)COc1ccc(C=O)cc1 (stereo not given)
220 µM

Give IC50 for COc1cc(C=O)ccc1OC(=O)COC(=O)c1ccc(O)c(O)c1
157 µM

Give IC50 for O=C(/C=C/c1ccc(O)c(O)c1)NCCc1c[nH]c2ccc(O)cc12
278 µM

Batch lookup, IC50 per entry.
1. Cc1ccc(NC(N)=S)cc1
2. COc1c(O)cc2c(c1O)[C@@H]1O[C@H](COC(=O)c3ccc(O)c(O)c3)[C@@H](O)[C@H](O)[C@H]1OC2=O
3. NC(=S)N/N=C\c1ccc(O[C@@H]2OC[C@@H](OC(=O)c3ccccc3)[C@H](OC(=O)c3ccccc3)[C@H]2OC(=O)c2ccccc2)cc1
4. CC(C)OC(=O)CCc1ccc(O)cc1O

1: 1.4 µM; 2: 17.5 µM; 3: 36.5 µM; 4: 0.07 µM

Give IC50 for O=C(O)c1ccc(O)cc1
> 100 µM

====

Target or system Tyrosinase (Agaricus bisporus); metric pIC50; compiled from varied reports.
One number for each entry, as −log10 of the molar value.

Please respond with reported pIC50 (system Tyrosinase (Agaricus bisporus)) for CCN(CC)C(=O)/C=C/c1ccc(O)cc1O .
7.95

Please respond with reported pIC50 (system Tyrosinase (Agaricus bisporus)) for C=CCOC(=O)CCC(=O)c1cc(C(C)C)c(OCC)cc1C .
3.90

Please respond with reported pIC50 (system Tyrosinase (Agaricus bisporus)) for O=C(NO)Nc1ccc(Br)cc1 .
5.57

Batch lookup, pIC50 per entry.
1. CCOCOc1cccc2c1C(=O)c1c(OCOCC)cc(/C=N/NC(N)=S)cc1C2=O
2. O=Cc1ccc(OCC2CO2)cc1 (configuration not stated)

[4.24, 3.23]

====

Target or system Tyrosinase (Agaricus bisporus); metric log10(IC50); compiled from varied reports.
Would you kindly interpret these values as log10 of IC50 expressed in µM?

Batch lookup, log10(IC50) per entry.
1. C/C(Cc1ccc(O)cc1)=N\NC(N)=S
2. O=C(OCc1ccc(O)cc1)c1ccc(O)cc1O
3. CC(=O)c1c(O)ccc(C(c2ccc(O)cc2O)c2ccc(O)c(C(C)=O)c2O)c1O
4. COc1cc(C=O)ccc1OC(=O)COC(=O)/C=C/c1ccc(O)cc1
5. COc1ccc(C(=O)Nc2ccc(/C(C)=N/NC(N)=S)cc2)cc1
6. COc1cc(-c2ccc(C)c(O)c2)cc(OC)c1O

0.43
0.67
1.21
1.21
0.06
1.95

Batch lookup, log10(IC50) per entry.
1. Cn1ccn(C(=O)OC(C)(C)C)c1=S
2. COc1ccc(C(=O)OC[C@H]2O[C@H]3c4c(cc(OC)c(OC)c4OC)C(=O)O[C@@H]3[C@@H](O)[C@@H]2O)cc1O
3. COc1ccc(C(=O)N/N=C/c2ccc(Cl)cc2)cc1OC
4. O=C1ON=C(c2ccccc2)/C1=C/c1ccc(O)cc1O

[3.16, 1.59, 1.29, 1.51]

====

Target or system Tyrosinase (Agaricus bisporus); metric pIC50; compiled from varied reports.
Give bare numbers, as −log10 of the molar value.

Give pIC50 for O=C(c1ccccc1)N1CCN(Cc2ccc(F)cc2)CC1
4.87

Give pIC50 for O=C(OCc1cc(=O)c(O)co1)c1ccc(O)cc1
5.26

Kindly review the next molecule as well.
Give pIC50 for O=c1cc(C[S+]([O-])C2CCCCC2)occ1O (stereo unspecified)
4.10

====

Target or system Tyrosinase (Agaricus bisporus); metric log10 IC50; compiled from varied reports.
Would you kindly interpret these values as log10 of IC50 expressed in µM?

Batch lookup, log10 IC50 per entry.
1. COc1cc(-c2ccc(C=O)c(O)c2)cc(OC)c1O
2. COc1ccc(C(C)=O)c(OC(=O)/C=C/c2ccc(O)cc2)c1

1: 1.78; 2: 0.30

Batch lookup, log10 IC50 per entry.
1. COc1cccc(OC(=O)COC(=O)c2cccc(O)c2)c1
2. C[C@H](CCc1ccc(O)cc1O)O[C@@H]1O[C@H](CO)[C@@H](O[C@@H]2O[C@H](CO)[C@@H](O)[C@H](O)[C@H]2O)[C@H](O)[C@H]1O
3. Nc1ccc(C(=O)/C=C/c2ccc(O)cc2)cc1

2.50
0.18
0.92

====

Target or system Tyrosinase (Agaricus bisporus, UniProt O42713); metric log10 of IC50; compiled from varied reports.
Biological target: Tyrosinase (Agaricus bisporus, UniProt O42713)
Sequence (O42713 whole entry): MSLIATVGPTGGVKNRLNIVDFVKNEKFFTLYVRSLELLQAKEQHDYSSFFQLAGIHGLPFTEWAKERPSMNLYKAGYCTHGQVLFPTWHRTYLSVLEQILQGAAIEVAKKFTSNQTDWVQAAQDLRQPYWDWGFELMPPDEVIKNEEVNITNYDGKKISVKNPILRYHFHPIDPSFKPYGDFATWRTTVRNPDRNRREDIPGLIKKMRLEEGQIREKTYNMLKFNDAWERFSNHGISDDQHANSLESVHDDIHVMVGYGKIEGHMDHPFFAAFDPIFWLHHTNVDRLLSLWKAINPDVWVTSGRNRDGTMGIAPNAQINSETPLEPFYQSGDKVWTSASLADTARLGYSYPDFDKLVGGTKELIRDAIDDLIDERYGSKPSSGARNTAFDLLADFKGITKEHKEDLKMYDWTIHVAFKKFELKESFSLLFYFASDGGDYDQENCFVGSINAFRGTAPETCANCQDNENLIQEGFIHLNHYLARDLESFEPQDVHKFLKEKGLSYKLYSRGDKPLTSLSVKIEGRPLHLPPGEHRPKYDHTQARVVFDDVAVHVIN
Would you kindly interpret these values as log10 of IC50 expressed in µM?

Batch lookup, log10 of IC50 per entry.
1. C=C(C)[C@@H]1CC[C@]2(C(=O)O)CC[C@]3(C)[C@H](CC[C@@H]4[C@@]5(C)CC[C@@H](O)[C@@](C)(C=O)[C@@H]5CC[C@]43C)[C@@H]12
2. C/C=C/COC(=O)CCC(=O)c1cc(C(C)C)c(OCC)cc1C
3. CCOC1Cc2c(C(C)=O)c(O)c3ccccc3c2O1 (centres undefined)
4. COc1cc2c(c(OC)c1OC)[C@@H]1O[C@H](COC(=O)c3ccc(O)c(O)c3)[C@@H](O)[C@H](O)[C@H]1OC2=O
5. O=C(c1cccc(O)c1)N1CCN(Cc2ccc(F)cc2)CC1
6. NC(=S)N/N=C/c1c[nH]c2ccccc12
7. COc1ccccc1NC(=S)Nc1nnc(SCC(=O)O)s1
8. O=C(/C=C/c1cc(=O)c(O)co1)OCCOCCO

1.41
2.01
2.48
0.96
1.10
2.78
1.43
1.42

Batch lookup, log10 of IC50 per entry.
1. O=C(O)CCc1ccc(O)cc1O
2. NC(=S)N/N=C/Cc1ccccc1
3. C/C(=N\NC(N)=S)c1ccc(NC(=O)C(C)C)cc1
4. Cc1ccc(C)n1NC(N)=S
5. Cc1ccc(-c2csc(N/N=C/c3cc4ccccc4s3)n2)cc1

1. 0.27
2. 0.85
3. -0.09
4. -0.07
5. 2.67

Batch lookup, log10 of IC50 per entry.
1. COc1ccc(/C=C/C(=O)Oc2cc(OC)ccc2C(C)=O)cc1
2. O=C(NCc1ccccc1)c1cc(O)cc(O)c1
3. Oc1cccc(O)c1
4. O=C1OC(c2ccc(/N=N/c3ccc(N4CCOCC4)cc3)cc2)=N/C1=C/c1ccc(F)cc1
5. CC(=O)N/C(=C\c1ccc(O)cc1)C(=O)O
6. O=Cc1cc(Cc2cc(C=O)c(O)cc2O)c(O)cc1O

1.89
2.85
3.16
1.20
1.81
1.88
